- Tgt: T1, Alpl (alkaline phosphatase) (Mus musculus, UniProt P09242 P09242:18-501)
- T1 sequence: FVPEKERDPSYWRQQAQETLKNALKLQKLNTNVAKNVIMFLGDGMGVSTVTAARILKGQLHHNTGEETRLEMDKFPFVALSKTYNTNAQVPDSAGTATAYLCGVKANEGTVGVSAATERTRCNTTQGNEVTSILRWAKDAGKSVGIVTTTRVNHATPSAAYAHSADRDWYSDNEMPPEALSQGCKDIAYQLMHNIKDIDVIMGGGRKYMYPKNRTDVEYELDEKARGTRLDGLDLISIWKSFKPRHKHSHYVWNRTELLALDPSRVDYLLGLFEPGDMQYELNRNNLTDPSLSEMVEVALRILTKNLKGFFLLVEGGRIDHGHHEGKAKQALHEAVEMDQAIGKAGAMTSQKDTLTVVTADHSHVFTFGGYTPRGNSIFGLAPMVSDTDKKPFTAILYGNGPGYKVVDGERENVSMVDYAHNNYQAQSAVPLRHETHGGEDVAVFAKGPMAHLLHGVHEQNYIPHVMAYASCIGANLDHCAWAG
- Assay Details: flow; biotinylated aptamer alone on Ext1-/- mouse ES cells; cell-surface binding
- Test Parameters: tags: endogenous on Ext1-/- mouse embryonic stem cells; chain copies: 2; G4
pEC50: −log10 of the molar value.
Measured Quantity: pEC50

GET /values?readout=pEC50&item= AGGTCAGATGAGGAGGGGGACTTAGGACTGGGTTTATGACCTATGCGTG (ssDNA, 5'-biotin) [Aptamer 19S]
~6.97
